Recorded Cannabinoid concentration in NTI164 (sample 28206-7) values for a group of compounds are listed next.
# test method notes: Stability of NTI164 in oil at room temperature (UPLC, weekly assay, CBDA as marker)
# measurement setup: Week 5 (19 Aug. 2021)
parameter: Cannabinoid concentration in NTI164 (sample 28206-7) (mg/mL)

{"compound": "CCCCCc1cc(O)c2c(c1)OC(C)(C)[C@@H]1CC=C(C)C[C@@H]21", "inequality symbol": "<", "value": 0.1}
{"compound": "CCCCCc1cc(O)c2c(c1)OC(C)(C)c1ccc(C)cc1-2", "inequality symbol": "=", "value": 2.22}
{"compound": "C=C(C)[C@@H]1CCC(C)=C[C@H]1c1c(O)cc(CCC)cc1O", "inequality symbol": "=", "value": 0.10}
{"compound": "C=C(C)[C@@H]1CCC(C)=C[C@H]1c1c(O)cc(CCCCC)cc1O [CBD, Cannabidiol, reference compound]", "inequality symbol": "=", "value": 0.60}
{"compound": "CCCCCc1cc(O)c2c(c1)OC(C)(CCC=C(C)C)C=C2 (centres unmarked)", "inequality symbol": "=", "value": 1.20}

* * *

# test method notes: Stability of NTI164 in oil at room temperature (UPLC, weekly assay, CBDA as marker)
# measurement setup: Day 14 (29 Jul. 2021)
Recorded Cannabinoid concentration in NTI164 (sample 28206-7) values for a group of compounds are listed next.
parameter: Cannabinoid concentration in NTI164 (sample 28206-7) (mg/mL)

{"compound": "CCCCCc1cc(O)c(C/C=C(\\C)CCC=C(C)C)c(O)c1 [Cannabigerol (CBG), Cannabigerol]", "inequality symbol": "=", "value": 5.1}
{"compound": "CCCCCc1cc(O)c2c(c1)OC(C)(C)[C@@H]1CCC(C)=C[C@@H]21 [Tetrahydrocannabinol (D9-THC), Tetrahydrocannabinol]", "inequality symbol": "<", "value": 0.1}
{"compound": "CCCCCc1cc(O)c2c(c1)OC(C)(C)[C@@H]1CC=C(C)C[C@@H]21 [DELTA-8-THC (D8-THC), DELTA-8-THC]", "inequality symbol": "<", "value": 0.1}
{"compound": "CCCCCc1cc(O)c2c(c1)OC(C)(C)c1ccc(C)cc1-2 [Cannabinol (CBN), Cannabinol]", "inequality symbol": "=", "value": 2.33}
{"compound": "C=C(C)[C@@H]1CCC(C)=C[C@H]1c1c(O)cc(CCC)cc1O [Cannabidivarin (CBDV), Cannabidivarin]", "inequality symbol": "<", "value": 0.1}

* * *

Recorded Cannabinoid concentration in NTI164 (sample 28206-7) values for a group of molecules are listed next.
# test method notes: Stability of NTI164 in oil at room temperature (UPLC, weekly assay, CBDA as marker)
# measurement setup: Day 2 (15 Jul. 2021)
parameter: Cannabinoid concentration in NTI164 (sample 28206-7) (mg/mL)

{"molecule": "CCCCCc1cc(O)c2c(c1)OC(C)(C)c1ccc(C)cc1-2", "output unit": "mg/mL", "inequality symbol": "=", "value": 2.54}
{"molecule": "C=C(C)[C@@H]1CCC(C)=C[C@H]1c1c(O)cc(CCC)cc1O", "output unit": "mg/mL", "inequality symbol": "<", "value": 0.1}
{"molecule": "CCCCCc1cc(O)c2c(c1)OC(C)(C)[C@@H]1CC=C(C)C[C@@H]21", "output unit": "mg/mL", "inequality symbol": "<", "value": 0.1}
{"molecule": "C=C(C)[C@@H]1CCC(C)=C[C@H]1c1c(O)cc(CCCCC)c(C(=O)O)c1O", "output unit": "mg/mL", "inequality symbol": "=", "value": 48.19}
{"molecule": "C=C(C)[C@@H]1CCC(C)=C[C@H]1c1c(O)cc(CCCCC)cc1O [CBD, Cannabidiol, reference compound]", "output unit": "mg/mL", "inequality symbol": "=", "value": 0.56}
{"molecule": "CCCCCc1cc(O)c2c(c1)OC(C)(CCC=C(C)C)C=C2 (stereo not shown)", "output unit": "mg/mL", "inequality symbol": "=", "value": 1.19}
{"molecule": "CCCc1cc(O)c2c(c1)OC(C)(C)[C@@H]1CCC(C)=C[C@@H]21 [Tetrahydrocannabivarin (THCV), Tetrahydrocannabivarin]", "output unit": "mg/mL", "inequality symbol": "<", "value": 0.1}
